System under test: Tyrosine-protein kinase JAK1 (Homo sapiens, UniProt P23458)
Sequence (P23458 whole entry): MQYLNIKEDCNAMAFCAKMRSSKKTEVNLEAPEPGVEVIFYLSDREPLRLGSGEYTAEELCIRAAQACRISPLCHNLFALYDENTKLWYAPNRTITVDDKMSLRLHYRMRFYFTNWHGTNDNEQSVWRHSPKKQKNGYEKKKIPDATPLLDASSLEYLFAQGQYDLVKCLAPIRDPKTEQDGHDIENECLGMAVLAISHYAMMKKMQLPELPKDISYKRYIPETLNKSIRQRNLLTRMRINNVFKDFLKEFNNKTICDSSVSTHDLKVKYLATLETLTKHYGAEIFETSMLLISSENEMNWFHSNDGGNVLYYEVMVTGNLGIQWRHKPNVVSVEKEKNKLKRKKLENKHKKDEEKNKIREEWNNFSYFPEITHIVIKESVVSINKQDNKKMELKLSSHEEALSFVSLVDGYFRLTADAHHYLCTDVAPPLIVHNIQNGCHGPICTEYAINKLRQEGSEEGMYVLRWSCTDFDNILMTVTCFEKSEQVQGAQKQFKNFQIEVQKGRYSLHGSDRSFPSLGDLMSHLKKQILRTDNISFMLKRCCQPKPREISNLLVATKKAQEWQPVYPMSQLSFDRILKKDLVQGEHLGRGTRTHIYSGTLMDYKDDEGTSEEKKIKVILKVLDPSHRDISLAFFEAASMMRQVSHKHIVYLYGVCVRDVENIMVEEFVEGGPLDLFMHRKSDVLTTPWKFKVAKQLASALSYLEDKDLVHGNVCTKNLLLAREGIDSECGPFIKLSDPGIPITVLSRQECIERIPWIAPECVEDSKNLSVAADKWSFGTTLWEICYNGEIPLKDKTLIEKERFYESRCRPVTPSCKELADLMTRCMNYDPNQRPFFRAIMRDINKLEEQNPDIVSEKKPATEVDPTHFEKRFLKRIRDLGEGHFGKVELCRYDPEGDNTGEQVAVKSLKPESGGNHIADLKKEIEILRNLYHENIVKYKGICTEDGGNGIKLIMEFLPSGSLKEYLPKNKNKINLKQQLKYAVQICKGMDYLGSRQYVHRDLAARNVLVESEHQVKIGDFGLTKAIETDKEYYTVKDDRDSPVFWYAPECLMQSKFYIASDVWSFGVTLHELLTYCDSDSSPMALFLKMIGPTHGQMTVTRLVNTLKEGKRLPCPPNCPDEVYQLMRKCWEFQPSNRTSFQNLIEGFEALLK
Protocol notes: Inhibition of recombinant JAK1 using Poly (Glu,Ala,Tyr) as substrate after 2 hrs by luminescence assay
Lab note: cut-off is 3000 nM. Strictly less in IC50 is Y. Exactly 3000 nM or more is N.

Consider the worked cases shown below.
ClCCOc1ccc2cc1COCC=CCOCc1cccc(c1)-c1ccnc(n1)N2 (mixture of isomers): N
Oc1ccc2cc1COCC=CCOCc1cccc(c1)-c1ccnc(n1)N2 (mixture of isomers): Y
C1=CCOCc2cc(ccc2N2CCNCC2)Nc2nccc(n2)-c2cccc(c2)COC1 (mixture of isomers): Y
C1=CCCOc2cccc(c2)-c2ccnc(n2)Nc2cccc(c2)OCC1: N
OCCN1CCN(c2ccc3cc2COCC=CCOCc2cccc(c2)-c2ccnc(n2)N3)CC1: N

Q. Confirm or reject: IC50 of CN(C)CCN(C)c1ccc2cc1COCC=CCOCc1cccc(c1)-c1ccnc(n1)N2 (mixture of isomers) lies strictly below 3000 nM
A. N

###

Measured IC50 values are reported for all entries that follow.
System under test: Tyrosine-protein kinase JAK3 (Homo sapiens)
Sequence (P52333 whole entry): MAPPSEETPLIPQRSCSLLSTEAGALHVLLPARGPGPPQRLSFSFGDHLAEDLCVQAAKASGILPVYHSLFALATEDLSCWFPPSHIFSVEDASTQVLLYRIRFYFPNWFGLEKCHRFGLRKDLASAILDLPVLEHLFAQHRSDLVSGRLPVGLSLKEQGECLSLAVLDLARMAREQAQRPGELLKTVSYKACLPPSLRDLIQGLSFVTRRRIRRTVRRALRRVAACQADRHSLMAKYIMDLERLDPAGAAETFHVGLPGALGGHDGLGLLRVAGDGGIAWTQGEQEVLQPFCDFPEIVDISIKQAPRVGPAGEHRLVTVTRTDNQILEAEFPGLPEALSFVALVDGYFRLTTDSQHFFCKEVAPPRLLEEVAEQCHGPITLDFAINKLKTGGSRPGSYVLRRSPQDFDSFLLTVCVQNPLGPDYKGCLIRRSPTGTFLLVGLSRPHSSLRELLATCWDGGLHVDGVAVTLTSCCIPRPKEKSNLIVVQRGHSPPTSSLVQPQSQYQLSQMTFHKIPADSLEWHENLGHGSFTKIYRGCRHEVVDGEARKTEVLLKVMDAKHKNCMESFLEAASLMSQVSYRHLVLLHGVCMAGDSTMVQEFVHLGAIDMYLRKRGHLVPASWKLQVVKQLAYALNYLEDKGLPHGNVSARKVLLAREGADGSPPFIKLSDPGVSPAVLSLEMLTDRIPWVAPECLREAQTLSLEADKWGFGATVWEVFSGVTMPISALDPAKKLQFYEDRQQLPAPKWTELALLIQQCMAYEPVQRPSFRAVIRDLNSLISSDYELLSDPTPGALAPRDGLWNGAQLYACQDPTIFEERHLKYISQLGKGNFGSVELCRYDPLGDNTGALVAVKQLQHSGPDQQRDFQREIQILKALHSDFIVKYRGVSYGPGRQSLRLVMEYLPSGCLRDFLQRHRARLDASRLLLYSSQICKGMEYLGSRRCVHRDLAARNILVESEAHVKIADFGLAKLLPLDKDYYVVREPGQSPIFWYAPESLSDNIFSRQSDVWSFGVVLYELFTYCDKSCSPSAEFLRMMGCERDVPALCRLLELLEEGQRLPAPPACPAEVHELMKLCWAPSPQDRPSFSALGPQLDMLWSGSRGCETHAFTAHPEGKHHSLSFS
Protocol notes: Inhibition of recombinant JAK3 using Poly (Glu,Ala,Tyr) as substrate after 2 hrs by luminescence assay

Example compounds with recorded IC50:
CCS(=O)(=O)N1CCN(c2ccc3cc2COCC=CCOCc2cccc(c2)-c2ccnc(n2)N3)CC1 (mixture of isomers): > 10 µM
C1=CCOc2cccc(c2)Nc2nccc(n2)-c2cccc(c2)OCC1 (mixture of isomers): > 10 µM

Switching to the query record.
Q. Give the measured IC50 for `C1=CCCOc2cccc(c2)-c2ccnc(n2)Nc2cccc(c2)OCC1`
A. > 10 µM
